Give measured GI50 for each item. Keep answers brief.
- System: 786-0
- methodNotes: NCI tumour cell line growth inhibition, 48 h
Calls of active or inactive are those of the source. Rule as the data show it: active = GI50 up to about 1.1 µM and inactive = higher.

The molecule C=CC1(NS(=O)(=O)c2ccc(C)cc2)CCC(C(C)(C)C)CC1 (stereo unspecified) showed GI50 equal to 46.8 µM (inactive)

GI50 reported for this molecule CCCCCCCCCCCCCCCCNc1ccn(C2CC(OP(=O)(O)OCC3OC(n4cc(CC)c(=O)[nH]c4=O)CC3O)C(CO)O2)c(=O)n1 (stereo unspecified) : 83.2 µM (inactive)

molecule CC(C)Cc1cc(CCC(=O)Nc2ccccc2[N+](=O)[O-])nc(NC#N)n1 , GI50 observed: > 100 µM (inactive)

Field GI50 (entry FC(F)(F)c1nc2nc(Cl)c(Cl)nc2n1CCCN1CCOCC1 ) reads > 100 µM (inactive)

// sample CCCCC(=O)Nc1ccc2cc(C(=O)OC)c(=O)[nH]c2n1 , its GI50 was > 100 µM (inactive)

Form field GI50, entry CC1=NN(c2ccccc2)C(=O)C1/N=N/c1ccc(S(N)(=O)=O)cc1 (stereo unspecified) : > 100 µM (inactive)

For record [N-]=[N+]=Nc1ccccc1Oc1ccccc1 the listed GI50 is > 100 µM (inactive)

The reported value for CCC(O)CCCCCCCCCCCCCCC(=O)O (stereo unspecified) in terms of GI50 is 84.9 µM (inactive)

Per the records, this molecule ( CCN(C(=O)/C=C/c1ccco1)c1ccccc1 ) has GI50 equal to > 100 µM (inactive)

Data point: CC(C)(c1ccccc1)c1ccc(OC#N)cc1 ; GI50 = > 58.1 µM (inactive)

GI50 measured on Cc1nc(N)sc1C(=O)/C=C\c1ccc2c(c1)OCO2 = > 100 µM (inactive)

----------
- Test system: OVCAR-3
- methodNotes: NCI tumour cell line growth inhibition, 48 h
Calls of active or inactive are those of the source. No stated cut-off is given here; in the data, active = GI50 up to about 1.1 µM and inactive = higher.
Choose the fitting class; nothing outside active, inactive is accepted.

QUERY: Status in this test for Cc1cccc2c(=O)c3c(O)cc4c(c3n(C)c12)C=CC(C)(C)O4 ?
RESULT: inactive

QUERY: Dear all, I need the recorded test outcome for COc1cc(OC)c(NC2=NCCO2)cc1Cl , thank you.
RESULT: inactive

QUERY: Returns: the outcome recorded for Oc1cc(-c2cccc(OC(F)(F)F)c2)nc2cc3c(cc12)OCO3 in this assay.
RESULT: active

QUERY: Can you look up the reported call for N#CC(NC12CC3CC(CC(C3)C1)C2)c1ccc2c(c1)OCO2 (stereo not drawn) for me?
RESULT: inactive

QUERY: Recorded call for COc1ccc2c(c1)OCc1c-2oc2ccccc2c1=O ?
RESULT: inactive

QUERY: Each compound tested received a call. Report the one for CC1=NN(C(=O)CC(=O)Nc2cccc(C)c2)C(=O)C1/N=N/c1ccc(C(=O)O)cc1 (stereo not drawn) .
RESULT: inactive

QUERY: Recorded test call requested for C=CCC1(OCc2ccccc2)C(=O)C(=O)OC1C1COC(C)(C)O1 (stereo not drawn)
RESULT: inactive

QUERY: For NC1=NC2=C(CCCC2)C(c2cccs2)S1 (stereo not drawn) , which call appears in the assay record?
RESULT: inactive

QUERY: Assay result, entry Cc1cc(C)c(C2[C@H]3C(=O)N(c4ccc(Cc5ccc(N6C(=O)[C@@H]7ON(c8ccccc8)C(c8c(C)cc(C)cc8C)[C@@H]7C6=O)cc5)cc4)C(=O)[C@H]3ON2c2ccccc2)c(C)c1 (stereo partly drawn) — outcome?
RESULT: inactive

QUERY: Would you mind telling me which call this test gave Cn1c2c(c3ccccc31)CCN1C(=O)CN(C(=O)C3CCCCC3)CC21 (stereo not drawn) ?
RESULT: inactive

QUERY: Outcome? C=C1C(=O)O[C@@H]2CC(CO)=C([C@@H](C)CCCO)[C@@H](OC(=O)/C(C)=C\C)[C@H]12
RESULT: inactive

QUERY: Could you please tell me the result logged for N[C@H]1CCCC[C@@H]1N1C(=O)c2ccccc2C1(O)c1ccc(Cl)cc1 (stereo partly drawn) in this assay?
RESULT: inactive

QUERY: Per the records of this test, what outcome belongs to CCC(=O)NCCc1c2c3c(ccnc3c3ncsc13)-c1ccccc1N2 [KUANONIAMINE C] ?
RESULT: inactive

----------
For each of the molecules below, state its GI50.
- System: U-251
- methodNotes: NCI tumour cell line growth inhibition, 48 h
Active and inactive are the calls of the source. Rule as the data show it: active = GI50 up to about 1.1 µM and inactive = higher.

Record C=C1[C@H](OCC(C)C)[C@@H](OC(=O)C(C)CC)[C@@H](O)C(C)(C)/C=C/[C@H](C)C(=O)[C@@]2(O)C[C@H](C)[C@H](O)[C@@H]2[C@H]1OC(=O)C(C)CC (stereo partly specified) . Reported GI50: 5.82 µM (inactive)

NS(=O)(=O)c1ccc(NC(=O)Nc2cccc3ccccc23)cc1 has a reported GI50 of 18.3 µM (inactive)

Value of measured GI50 for the entry Nc1nc2c(ncn2Cc2ccccc2CO)c(=O)[nH]1 : > 100 µM (inactive)

Measured GI50, COc1ccc(NC(=S)N/N=C2\C(=O)Nc3ccccc32)cc1 : 5.22 µM (inactive)

Reported GI50 ( Nc1ccc(Nc2cc(=O)[nH]c(=O)[nH]2)cc1Cl ) = > 100 µM (inactive)

Reported GI50 of COc1ccc(-n2nnc3c(C#N)c(C)c(-c4ccccc4)n3c2=O)cc1 : 11.3 µM (inactive)

----------
- System: DU-145
- methodNotes: NCI tumour cell line growth inhibition, 48 h
Activity calls are given as the source filed them. Rule as the data show it: active = GI50 up to about 1.1 µM and inactive = higher.
Permitted responses: label 1 = active, label 0 = inactive

QUERY: Hey, what did the test say about Cc1ccc(S(=O)(=O)OC2CC(C(C)(C)C)CCC2c2ccccc2)cc1 (stereo not given) ?
RESULT: label 0

QUERY: Would you mind telling me which call this test gave Cc1c(C)n(-c2ccccc2)c2nc([S+](C)[O-])nc([S+](C)[O-])c12 (stereo not given) ?
RESULT: label 0

QUERY: What classification did CNCCN[C@@H]1c2cc3c(cc2[C@@H](c2cc(OC)c(O)c(OC)c2)[C@H]2C(=O)OC[C@@H]21)OCO3 end up with in this test?
RESULT: label 1

QUERY: Hi team, can someone confirm the assay call for O=C(/C=C/c1ccc(OCc2ccccc2)c(OCc2ccccc2)c1)OCc1ccccc1 ?
RESULT: label 0

QUERY: Could you kindly confirm the outcome this assay logged for Nc1nc(O)c(N)c(NCCOCP(=O)(O)O)n1 ?
RESULT: label 0

QUERY: Name the outcome recorded for O=C(Cn1ccnc1[N+](=O)[O-])NCCO [ETANIDAZOLE] in the assay.
RESULT: label 0

QUERY: I would be grateful if you could indicate the recorded call for CCOP(=O)(OCC)/C(C#N)=C/c1ccc(-c2cc(C(F)(F)F)cc(C(F)(F)F)c2)o1 .
RESULT: label 0

QUERY: Which result was noted for this compound in the test: CCOC(=O)c1sc2ncnc(N)c2c1C
RESULT: label 0

QUERY: I'd appreciate the recorded outcome for Cc1nnc2c3c(-c4ccccc4)c(-c4ccccc4)oc3nc(N(C)C)n12 from this test.
RESULT: label 0

QUERY: Please state the recorded outcome for this compound: Oc1cc(-c2cccc(OC(F)(F)F)c2)nc2cc3c(cc12)OCO3
RESULT: label 1

----------
- Tested on: OVCAR-5
- methodNotes: NCI tumour cell line growth inhibition, 48 h
Calls of active or inactive are those of the source. Cut-off read from the data, not from the text of the source: active = GI50 up to about 1.1 µM and inactive = higher.
Provide the reported GI50 of each item.

get_value(item= NCCCNCCSP(=O)(O)O , readout=GI50) returns > 750 µM (inactive)

Measured GI50 of O=C(c1cccs1)N1CCN(C(=O)c2cccs2)C1=S : 16 µM (inactive)

# compound CC(=O)NCCC1CNc2ccccc21 (centres undefined) ; its GI50 = > 100 µM (inactive)

Notebook: O=C1NC(N2CCCCC2)=N/C1=C\c1ccco1 , GI50 read as > 100 µM (inactive)

Looking up CCN(C(=O)/C=C/c1ccco1)c1ccccc1 , I see its GI50 listed as > 100 µM (inactive)

Recorded GI50 (compound CCOC(=O)c1sc2ncnc(N)c2c1C ): 36.3 µM (inactive)

The reported GI50 of the compound C[C@]1(CO)CCC[C@@]2(C)C1CC[C@H]1CC3C[C@]12CC[C@]3(C)O (some centres undefined) was > 100 µM (inactive)

Value of GI50 reported for the compound COC(=O)[C@H](Cc1c[nH]c2ccccc12)NC(=O)c1ccc(CNC(=O)/C(C)=C/c2ccccc2)cc1 is > 100 µM (inactive)

Form: compound = Cc1cc([N+](=O)[O-])c(C)c2c1[nH]c1ccc(Cl)cc12 ; GI50 = > 100 µM (inactive)

----------
Record form. Attribute: GI50. Fill in for each entry.
- System: SW-620
- methodNotes: NCI tumour cell line growth inhibition, 48 h
The source made the active and inactive calls. Cut-off read from the data, not from the text of the source: active = GI50 up to about 1.1 µM and inactive = higher.

The compound listed as COc1cc([C@@H]2c3cc4c(cc3C(N)C3COC(=O)[C@@H]32)OCO4)cc(OC)c1O (stereo partly specified) shows GI50 equal to 0.301 µM (active)

Reported GI50 of O=C(O)c1nnsc1-c1csnn1 : > 100 µM (inactive)

Quick note, GI50 for O=C(NNS(=O)(=O)c1ccc(Br)cc1)c1ccc(Cl)cc1NC(=O)C12CC3CC(CC(C3)C1)C2 landed at 19.5 µM (inactive)

// sample CCOC(=O)/C(C(=O)c1ccc[nH]1)=C1/CCCN1C , its GI50 was > 100 µM (inactive)

Entry COc1ccc(-c2onc(-c3ccc([N+](=O)[O-])cc3)c2C2=NCCCN2)cc1 , GI50 reported as > 100 µM (inactive)

Entry O=C(O)c1ccc2nc(-c3ccccn3)c(-c3ccccn3)nc2c1 — recorded GI50 = > 100 µM (inactive)

The reported value for Cc1cc(N(CCC#N)CCC#N)ccc1/C=C1/N=C(c2ccccc2)N(N)C1=O in terms of GI50 is 85.5 µM (inactive)

Per the records, this compound ( Cc1ccc2c(ccc3[nH]cc(CNc4ccc(NS(C)(=O)=O)cc4)c32)n1 ) has GI50 equal to 31.2 µM (inactive)

Lookup result for Cc1nc(N)sc1C(=O)/C=C\c1ccc2c(c1)OCO2 ; measured GI50: > 100 µM (inactive)

Reported GI50 for CCCCCCCCCCNC(=S)OC was 42.8 µM (inactive)

Quick note, GI50 for O=C(c1cccs1)N1CCN(C(=O)c2cccs2)C1=S landed at 5.01 µM (inactive)

Reported GI50 ( Cc1cn([C@H]2C[C@](C)(CO)N(C)O2)c(=O)[nH]c1=O ) = > 100 µM (inactive)

Form field GI50, entry COc1ccc(-c2cc(-c3ccc(O)cc3O)c(C#N)c(=O)[nH]2)cc1 : 21.3 µM (inactive)

Entry under test: N#CCc1nc(-c2cc3c(ccc4ccccc43)oc2=O)cs1 . Its GI50 was 91.8 µM (inactive)

Data point: C[C@@H](C[C@@H](O)[C@H](O)C(C)(C)O)[C@H]1CC=C2[C@]3(C)[C@H](O)C[C@H]4C(C)(C)[C@H](O)CC[C@]4(C)[C@H]3CC[C@@]21C ; GI50 = 17.3 µM (inactive)

Form field GI50, entry CC(C)(c1ccccc1)c1ccc(OC#N)cc1 : 99.3 µM (inactive)

For record Cn1c(Nc2ccccc2)c(/C=N\c2ccccc2)c(=O)n(C)c1=O the listed GI50 is > 100 µM (inactive)

Looking up Cc1ccc(CC2(OCCN(C)C)CCC(C(C)(C)C)CC2)cc1 (stereo unspecified) , I see its GI50 listed as 2.25 µM (inactive)

Looking up CN1C(=O)C(=O)c2cc3c(c4c2c1cc1ccccc14)OCO3 , I see its GI50 listed as 35.4 µM (inactive)

Entry CN1N=C2NCCNC3=NN(C)/C(=N/CC/N=C/1S2)S3 — recorded GI50 = > 100 µM (inactive)

# GI50 (compound: Nc1c(-c2nc3ccccc3s2)c2ccc([N+](=O)[O-])cc2c(=O)n1-c1cccc(C(=O)O)c1 ) is 29.1 µM (inactive)
